Test: PSAC antagonists in infected red cells, primary screen, cell-based, P. falciparum Indochina, OD700, 1 h (AID 1154)
Conditions: P. falciparum Indochina infected RBC osmotic lysis, called active from +8 up or from −8 down
Active and inactive are the calls of the source.
Respond with a class label; see active, inactive

Sample answers from the record:
C=CCN1C(=O)[C@@]2(O[C@@H](CCO)[C@H]([Si](C)(C)c3ccc(OC)cc3)[C@H]2C)c2cc(N3C(=O)c4cccc5cccc3c45)ccc21 ... active
COC(=O)C1=CC(c2ccc(CO)cc2)=CC(c2cccs2)N(C)C=C1C(=O)OC (stereo not drawn) ... inactive
[N-]=[N+]=NCc1ccccc1C[C@]1(C(=O)NCc2ccccc2)N=C(c2ccc(OCCCO)cc2)O[C@H]1c1ccccc1 ... active
COCCOC(=O)N1C(=O)[C@@]2(c3cc(C#CC4(O)CCCCCC4)ccc31)[C@H](c1ccc(O)cc1)N1[C@H](c3ccccc3)[C@H](c3ccccc3)OC(=O)[C@H]1[C@@H]2C(N)=O ... inactive
COc1ccc([Si](C)(C)[C@@H]2[C@@H](CCn3cc([C@H](O)c4ccccc4)nn3)O[C@]3(C(=O)N(C)c4c(Br)cc(C)cc43)[C@H]2C)cc1 ... active
C=CCC(OC(C)=O)[C@@H]1[C@@H](N(Cc2cc3ccccc3o2)C(=O)c2ccc(-c3ccccc3)cc2)c2cc(OCCCO)ccc2N1C(=O)c1ccc(-c2ccccc2)cc1 (stereo partly drawn) ... inactive
CC(C)N1CC=CC23O[C@@H]4/C=C\CCCOC(=O)C4[C@H]2C(=O)N(CCCO)[C@@H]3C1=O (stereo partly drawn) ... inactive
COc1ccc([Si](C)(C)[C@H]2[C@H](CC(=O)N3Cc4ccccc4C[C@H]3CO)O[C@@]3(C(=O)N(Cc4cccc(N5C(=O)COc6ccccc65)c4)c4ccccc43)[C@@H]2C)cc1 ... inactive
CCOC(=O)C[C@H]1[C@H](OC(=O)c2ccc(-c3ccccc3)cc2)[C@@H](NC(=O)c2ccccc2)c2cc(OCCCO)ccc2N1C(=O)c1ccccc1 ... inactive
COc1ccc([Si](C)(C)[C@H]2[C@H](CC(=O)N(CCO)Cc3ccccc3)O[C@@]3(C(=O)N(Cc4ccc(N5CCOC5=O)cc4)c4ccccc43)[C@@H]2C)cc1 ... active

Write down the call the test reported for this molecule. Item: `COc1ccc([Si](C)(C)[C@H]2[C@H](CCO)O[C@@]3(C(=O)N(Cc4ccc(N5C(=O)c6cccc7cccc5c67)cc4)c4ccccc43)[C@@H]2C)cc1`
inactive

Write down the call the test reported for this molecule. Item: `CCOC(=O)C[C@H]1[C@H](OC(=O)c2ccc(C(=O)c3ccccc3)cc2)[C@@H](NC(=O)Cc2ccc(OC)cc2)c2cc(OCCCO)ccc2N1C(=O)Cc1ccc(OC)cc1`
inactive

Write down the call the test reported for this molecule. Item: `CCCCCCC#C[Si](O[C@H](c1ccccc1)c1cn(Cc2ccccc2)nn1)(C(C)C)C(C)C`
inactive

* * *

Biological target: Torsin-1A (Homo sapiens)
Assay: small-molecule binders of mutant TOR1A in lysate, primary screen, cell lysate, small-molecule microarray, COS7 lysate, 635/667 nm fluorescence (AID 1150);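 further: score pools 667 nm emission and signal to noise measuring lysate protein binding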
Conditions: COS7 hTOR1A mutant lysate, 635 nm fluorescence, higher = more signal
Returns one of Criterion met or Criterion not met; Criterion met when composite z-score is >= 0.6.

Sample answers from the record:
C=CC[C@]1(C(=O)N(C)C)N=C(c2ccc(OCCCO)cc2)O[C@H]1c1ccccc1CN=[N+]=[N-] ... Criterion met
COc1c(C)cc(-c2cc3c(c(CCc4ccccc4)n2)[Si](C(C)C)(C(C)C)OC3)cc1C ... Criterion not met
COC(=O)C1=CC(c2ccc(CO)cc2)=CC(C2CC2)N(C)C=C1C(=O)OC (centres undefined) ... Criterion met
COCCOC(=O)N1C(=O)[C@@]2(c3cc(C#CCNC(N)=O)ccc31)[C@H](c1ccccc1OCCO)N1[C@H](c3ccccc3)[C@H](c3ccccc3)OC(=O)[C@H]1[C@@H]2C(=O)Nc1nc2ccccc2s1 ... Criterion not met

Now, please, on to the next compound.
Does the compound `C=CCNC(=O)[C@H]1[C@@H]2C(=O)O[C@@H](c3ccccc3)[C@@H](c3ccccc3)N2[C@@H](c2ccc(OCCO)cc2)[C@]12C(=O)Nc1ccc(C#CCCO)cc12` have recorded composite z-score that is 0.6 or more?
Criterion not met
